Attribution: patent US8232289B2

# measurement_target: UniProtKB P28335
# Sequence (P28335 33-458, species assumed): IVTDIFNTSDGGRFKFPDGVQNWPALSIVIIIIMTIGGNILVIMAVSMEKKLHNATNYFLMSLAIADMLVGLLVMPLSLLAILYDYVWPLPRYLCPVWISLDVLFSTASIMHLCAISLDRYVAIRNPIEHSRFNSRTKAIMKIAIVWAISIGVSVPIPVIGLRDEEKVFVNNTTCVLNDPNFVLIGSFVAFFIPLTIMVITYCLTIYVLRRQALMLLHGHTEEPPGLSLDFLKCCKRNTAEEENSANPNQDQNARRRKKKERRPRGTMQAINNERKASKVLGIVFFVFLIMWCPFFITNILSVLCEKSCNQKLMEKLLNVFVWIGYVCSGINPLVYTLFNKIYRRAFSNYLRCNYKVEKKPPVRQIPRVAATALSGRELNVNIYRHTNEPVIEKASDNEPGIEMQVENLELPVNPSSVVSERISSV
# experimental_details: Radioligand binding selectivity, 5-HT2C
# protocol_conditions: read-out: Ki 5-HT2C
quantity_name: Ki

Enquiry: Ki lookup needed for Cc1nn(-c2ncccc2CO)cc1CN1CCC2(CC1)OCC(F)(F)c1cc(Cl)sc12 [Example 62] , thanks.
Return: > 5.65 µM

----------
# measurement_target: Norepinephrine transporter (Homo sapiens)
# Sequence (P23975 whole entry, species assumed): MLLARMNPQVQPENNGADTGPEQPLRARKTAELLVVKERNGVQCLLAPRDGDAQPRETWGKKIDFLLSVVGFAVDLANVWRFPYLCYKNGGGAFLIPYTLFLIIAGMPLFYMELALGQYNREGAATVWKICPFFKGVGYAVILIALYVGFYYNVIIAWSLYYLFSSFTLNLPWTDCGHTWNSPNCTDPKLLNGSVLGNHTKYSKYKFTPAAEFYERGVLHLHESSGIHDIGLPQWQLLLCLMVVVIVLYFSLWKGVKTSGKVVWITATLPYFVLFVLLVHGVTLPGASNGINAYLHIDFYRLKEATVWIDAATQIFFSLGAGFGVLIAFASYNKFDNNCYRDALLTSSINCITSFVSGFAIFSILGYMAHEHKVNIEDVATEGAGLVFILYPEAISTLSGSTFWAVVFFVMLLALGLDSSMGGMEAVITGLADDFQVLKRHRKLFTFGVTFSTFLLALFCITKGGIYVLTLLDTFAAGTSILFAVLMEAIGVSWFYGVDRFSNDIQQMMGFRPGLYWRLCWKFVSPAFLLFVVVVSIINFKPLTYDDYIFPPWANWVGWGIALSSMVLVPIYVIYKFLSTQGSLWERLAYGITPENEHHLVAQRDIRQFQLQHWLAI
# experimental_details: Radioligand binding selectivity, Norepinephrine transporter
# Text: Similarly, Ki for the mu, kappa and delta opioids, serotonin, dopamine, adrenergic, mucarinic, and histamine receptors, as well as binding to the norepinephrine transporter, sodium channel, chloride channel, and calcium channel may be determined using membranes expressing the desired receptor/transporter/channels and appropriate corresponding radioligand competitor molecules.
quantity_name: Ki

Enquiry: Ki lookup needed for O=C(O)C(O)C(O)C(=O)O.OCc1nn(-c2ncccc2F)cc1CN1CCC2(CC1)OCC(F)(F)c1cc(Cl)sc12 , thanks.
Return: > 500 nM
